Where do the numbers come from? From patent US10010547B2.

System: MIA PaCa-2 cells
test_protocol: Gemcitabine Combination Cell Assay (Cell Titer Glo)
Assay type: cell-based
test_conditions: approximate concentration of Chk1 inhibitor that results in a two-fold reduction in the IC50 of gemcitabine alone, MIA PaCa-2 cells, 72 h
property_label: 2xLS

Request: State, in one line, measured 2xLS of COc1cc(CNC(=O)C2CC2)ccc1-c1cc(Nc2cnc(C#N)cn2)n[nH]1
Response: ~20 nM

Request: State, in one line, measured 2xLS of COc1cc(O[C@H]2CCNC2)ccc1-c1cc(Nc2cnc(C#N)cn2)n[nH]1
Response: <3 nM

Request: State, in one line, measured 2xLS of COc1cc(C2CCN(CCO)CC2)ccc1-c1cc(Nc2cnc(C#N)cn2)n[nH]1
Response: <3 nM

Request: State, in one line, measured 2xLS of COc1cc(C2(F)CN(C)C2)ccc1-c1cc(Nc2cnc(C#N)cn2)n[nH]1
Response: <3 nM

Request: State, in one line, measured 2xLS of COc1cc(C2CCNCC2)ccc1-c1cc(Nc2cnc(C#N)cn2)n[nH]1
Response: ~5 nM

Next:
Request: State, in one line, measured 2xLS of COc1cc(OC[C@@H]2CCCN2C(C)C)ccc1-c1cc(Nc2cnc(C#N)cn2)n[nH]1
Response: <3 nM

Request: State, in one line, measured 2xLS of CCN1CC[C@H](OCc2ccc(-c3cc(Nc4cnc(C#N)cn4)n[nH]3)c(OC)c2)C1
Response: <10 nM
